The reported numbers originate from patent US20230114728A1.

tested on: N. gonorrhoeae WHO G; assay: Liquid broth MIC in Fastidious broth; type: cell-based; conditions: Neisseria gonorrhoeae; N. gonorrhoeae strain WHO G; Fastidious broth; read-out: Minimum Inhibitory Concentration, N. gonorrhoeae WHO G
readout_kind: MIC

Past entries and their recorded results:
[
  {
    "molecule": "NCCN1CCN(C(=O)N[C@H](C(=O)N[C@H]2Cc3cccc(C(=O)O)c3OB2O)c2ccc(O)cc2Cl)C(=O)C1=O (single isomer, unassigned)",
    "experimental_value": "> 64 mg/L"
  },
  {
    "molecule": "CCN1CCN(C(=O)NC(C(=O)N[C@H]2Cc3cccc(C(=O)O)c3OB2O)c2cccc([N+](=O)[O-])c2)C(=O)C1=O (stereo partly drawn)",
    "experimental_value": "4 to 8 mg/L"
  }
]

Next molecule, MIC to be filled in.
The recorded MIC for CCN1CCN(C(=O)N[C@@H](C(=O)N[C@H]2Cc3cccc(C(=O)O)c3OB2O)c2ccc(C(=O)O)cc2Cl)C(=O)C1=O (single isomer, unassigned) is 1 to 2 mg/L
